system: EKVX; assay: NCI tumour cell line growth inhibition, 48 h
Activity calls are given as the source filed them. Rule as the data show it: active = GI50 up to about 1.1 µM and inactive = higher.
Measured endpoint: GI50

Prompt: Suppose we examine the compound `Cc1cc(NC(=S)Nc2ccccc2)c(NC(=S)Nc2ccccc2)cc1C` ; what GI50 value has been reported?
Completion: 39.3 µM (inactive)

Prompt: Given the entry `O=P(O)(O)C(N=C(Nc1ccccc1)Nc1ccccc1)P(=O)(O)O` , report its measured GI50.
Completion: > 100 µM (inactive)

Prompt: # get_value(readout='GI50', item= `O=S(=O)(O)c1cccc2cccc(/N=N/c3c(O)ccc4ccccc34)c12` )
Completion: 92.3 µM (inactive)

Prompt: Would you kindly share the measured GI50 for `CC(C)(C)c1cc(-c2c3nc(c(-c4cc(C(C)(C)C)cc(C(C)(C)C)c4)c4ccc([nH]4)c(-c4cc(C(C)(C)C)cc(C(C)(C)C)c4)c4nc(c(-c5cc(C(C)(C)C)cc(C(C)(C)C)c5)c5ccc2[nH]5)C=C4)C=C3)cc(C(C)(C)C)c1` ?
Completion: > 100 µM (inactive)

Prompt: I am curious: what GI50 value has been reported for Cc1nc2ccc(S(=O)(=O)O)cc2c(=O)n1-c1ccc(C(=O)NN2C(=O)C(Cl)C2c2cccs2)cc1 (configuration not stated) ?
Completion: 18.5 µM (inactive)

Prompt: # query: GI50 of entry `O=C1[C@@H](c2ccc(Cl)cc2)[C@H]2CC=C[C@H]2N1O`
Completion: > 100 µM (inactive)

Prompt: If you can, please state the reported GI50 value of CSc1nc2c(c(O)c(C)c(=O)n2C2OC(COC(C)=O)C(OC(C)=O)C(OC(C)=O)C2OC(C)=O)c(=O)n1C (configuration not stated) .
Completion: > 100 µM (inactive)

Prompt: Which GI50 value belongs to CCCCNCCCNCCCNC(=O)c1csc(-c2csc(CCNC(=O)C(NC(=O)C(C)C(O)C(C)NC(=O)C(NC(=O)c3nc(C(CC(N)=O)NCC(N)C(N)=O)nc(N)c3C)C(OC3OC(CO)C(O)C(O)C3OC3OC(CO)C(O)C(OC(N)=O)C3O)c3c[nH]cn3)C(C)O)n2)n1 (configuration not stated) ?
Completion: 14 µM (inactive)

Prompt: Would you kindly share the measured GI50 for `O=C(O)c1cc(-c2ccc3c(O)ccc(O)c3c2)ccc1O` ?
Completion: 18.2 µM (inactive)

Prompt: For the compound shown here, CC1=C2C(O)C(C(C)C(=O)N(C)C)CCC2(C)C=CC1=O (configuration not stated) , give the reported GI50.
Completion: > 100 µM (inactive)

Prompt: // returns reported GI50 for input `Cc1c(C)c(C)c(CC2(C)CSC2)c(CC2(C)CSC2)c1C`
Completion: > 100 µM (inactive)

Prompt: GI50 for CC(CN(C)C)/C(=N\Nc1ccccc1)c1ccccc1 (configuration not stated) ?
Completion: 1.3 µM (inactive)

Prompt: Which GI50 is listed for `CN(C)c1ccc(/C=C(\NC(=O)c2ccccc2)c2nn(C)c(=O)o2)cc1` ?
Completion: > 100 µM (inactive)

Prompt: Given the entry C=C1CC2(C)CCC(OC(=O)C3(C)OC3C)C(C)(OC(C)=O)C2CC1=C(C)C (configuration not stated) , report its measured GI50.
Completion: > 100 µM (inactive)

Prompt: What does the data say about its GI50? Entry: `Cc1cc(C)nc(NS(=O)(=O)c2ccc(NC(=O)c3cccc4c(N)c5ccccc5nc34)cc2)n1`
Completion: > 100 µM (inactive)

Prompt: If you can, please state the reported GI50 value of `COc1ccccc1C(=O)N(C)c1ccc(Cl)c(C(=O)OC(C)C)c1` .
Completion: 44.2 µM (inactive)

Prompt: Consider the compound shown here: `c1ccc(C2(c3cc4ccccc4[nH]3)OCCO2)nc1` What is its recorded GI50?
Completion: > 100 µM (inactive)

Reference source for all entries: ChEMBL document CHEMBL1201862
